Where these numbers come from: the supplement of paper PMC6555819

- Test system: LXRb homodimer (NR concentration 270 nM)
- test-description: PBM binding z-score (relative to random genomic background probes); higher = stronger binding; sequences stand for … in GC…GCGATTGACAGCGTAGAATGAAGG
Entries annotated with measured PBM binding z-score
Respond using a number only.

Sample records with PBM binding z-score:
> print(dat)
                     primary.sequence  numeric.readout
1  TCATACAGGTAAAGGTGAAAGTCGAACGATATGA            0.312
2  GCTCGGAGGACAAGGTTAGAGCTTTGTCCGTAGA            -0.89
3  ATATGTAGGTTATCGGGTGATTCAGTTTGCGCAT            0.879
4  CCGACTGGGGCAAGGTTACCATTACGCACAGCCA             -0.9
5  CCCACTGGGCCATCAGGTCATTGATATCAACGTT            -0.17
6  GTACCAAGGTGAATAGGTCGTAGATGAGTAGGCG           -0.297

**Query** May I ask what PBM binding z-score has been recorded for TCATATAGGTATAAGGTGAAAGTCGGTGTGGTAA ?
**Result** 0.352

**Query** What about this sequence? CATATAGGGTCAGCTAGGCCAGAGTAGGGACGGC
**Result** 0.223

**Query** What about this sequence? AATACAGGGTCACTAGGGCAGAGTAGGTACGAAT
**Result** 1.51

**Query** What about this sequence? ATAACAAGGTGATCGTGAGGTCGTTGATACTAAC
**Result** 0.521

**Query** What about this sequence? CCTACTGGGCCATGCAGAGGTCATTGATCATATG
**Result** -0.363

**Query** What about this sequence? TCGAGTAGGTTAGTCGGGGCATTCCGCCAACATA
**Result** -0.721
